- procedure_details: Caco-2 permeability assay (apical to basolateral)
- Format: in vitro ADME, human
- condition_context: Caco-2, average of 3 replicates; read-out: Caco_Papp_Average
Below, each entry is listed alongside its reported Papp A→B.
Please report the result as a number followed by the unit.

Exam item: Provide one value: measured Papp A→B of CC[C@H](C)[C@@H]1NC(=O)[C@H](Cc2ccccc2)N(C)C(=O)[C@H](CC(C)C)N(C)C(=O)[C@@H](C(C)C)NC(=O)[C@@H](C)NC(=O)[C@@H]2CCCN2C(=O)[C@@H](CC(C)C)NC(=O)[C@@H]2CCCN2C(=O)[C@H](C)NC1=O (single isomer, unassigned) [Design D9.6.p1]
Marked response: 4.51 ×10⁻⁶ cm/s

Let's switch to this compound now.
Exam item: Using known records, supply Papp A→B for CC[C@H](C)[C@@H]1NC(=O)[C@@H](CC(C)C)NC(=O)[C@H](CC(C)C)N(C)C(=O)[C@H](Cc2ccccc2)NC(=O)CN(C)C(=O)[C@@H]2CCCN2C(=O)[C@H](C(C)C)NC(=O)[C@H](Cc2ccccc2)N(C)C(=O)[C@H]2CCCN2C(=O)[C@H](CC(C)C)NC1=O (single isomer, unassigned) [Design D10.1.p2]
Marked response: 3.6 ×10⁻⁶ cm/s

* * *

- procedure_details: Pharmacokinetics and oral bioavailability of D11.3 in male Swiss albino mice (IV, PO, SQ)
- Assay type: in vivo
- condition_context: male, Swiss albino, mouse, plasma; SC 5.00 mg/kg
Where a SMILES comes first, the peptide text is derived from it. [ ]: non-standard residue; d: D form. dNMeI = CC[C@@H](C)[C@@H](NC)C(=O)O; NMeL = CN[C@@H](CC(C)C)C(=O)O
outcome_measure: Cmax (ng/mL)
Please reply with the bare figure in ng/mL and do not write the unit itself.

Exam item: Give reported Cmax value for CC[C@@H](C)[C@H]1NC(=O)[C@H]([C@@H](C)CC)NC(=O)[C@H](CC(C)C)N(C)C(=O)[C@H]2CCCN2C(=O)[C@@H]([C@H](C)CC)NC(=O)[C@@H]([C@H](C)CC)N(C)C(=O)[C@H](CC(C)C)NC(=O)[C@H]2CCCN2C(=O)[C@@H]2CCCN2C(=O)[C@H](C(C)C)NC(=O)[C@H]2CCCN2C1=O [Design D11.3] (cyclo(I[dI][dP]VP[dP]L[dNMeI][dI][dP][NMeL]))
Marked response: 148

* * *

- condition_context: PAMPA
Where a SMILES comes first, the peptide text is derived from it. [ ]: non-standard residue; d: D form. dNMeF = CN[C@H](Cc1ccccc1)C(=O)O; NMeL = CN[C@@H](CC(C)C)C(=O)O; dNMeL = CN[C@H](CC(C)C)C(=O)O
outcome_measure: PAMPA_Papp_Avg

Exam item: Quick one: give measured PAMPA_Papp_Avg for CC(C)C[C@H]1NC(=O)[C@@H]2CCCN2C(=O)[C@H]2CCCN2C(=O)[C@H](C(C)C)NC(=O)[C@@H](CC(C)C)NC(=O)[C@@H]2CCCN2C(=O)[C@H]2CCCN2C(=O)[C@H](C(C)C)NC1=O (single isomer, unassigned) [Design D8.12.p2, DLEU VAL DPRO PRO DLEU VAL DPRO PRO]
Marked response: 2.00E-07

Exam item: Tell me measured PAMPA_Papp_Avg for CC(C)C[C@@H]1NC(=O)[C@H](CC(C)C)N(C)C(=O)[C@@H](Cc2ccccc2)N(C)C(=O)[C@H](Cc2ccccc2)NC(=O)[C@@H]2CCCN2C(=O)[C@@H](C)NC(=O)[C@@H]2CCCN2C(=O)[C@H](CC(C)C)N(C)C(=O)[C@H](CC(C)C)N(C)C(=O)[C@@H](C(C)C)NC1=O [Design D10.13] (cyclo(F[dNMeF][NMeL]L[dV][NMeL][NMeL]P[dA]P)) please.
Marked response: BQL

Exam item: Return reported PAMPA_Papp_Avg. Input molecule: CC[C@H](C)[C@@H]1NC(=O)[C@H](CC(C)C)NC(=O)[C@H](Cc2ccccc2)NC(=O)[C@@H](C)NC(=O)[C@H]2CCCN2C(=O)[C@@H]2CCCN2C(=O)[C@H]2CCCN2C(=O)[C@H](CC(C)C)NC(=O)[C@@H](C(C)C)NC(=O)[C@@H](CC(C)C)N(C)C(=O)[C@@H]2CCCN2C1=O [Design D11.17] (cyclo([dP][dA]FLIP[dNMeL][dV]L[dP]P))
Marked response: BQL

* * *

- procedure_details: Pharmacokinetics and oral bioavailability of D11.2 in male SD rats (IV, PO, SQ)
- Type: in vivo
- condition_context: male, Sprague Dawley, rat, plasma, po, 1 mg/kg, PO 1 mg/kg, Mean
Where a SMILES comes first, the peptide text is derived from it. [ ]: non-standard residue; d: D form. NMeL = CN[C@@H](CC(C)C)C(=O)O; Sar = CNCC(=O)O
outcome_measure: bioavailability (%)
Number only, in %; omit the unit.

Exam item: Report measured bioavailability; entry is CC[C@@H](C)[C@H]1NC(=O)[C@@H]2CCCN2C(=O)[C@@H]([C@H](C)CC)NC(=O)CN(C)C(=O)[C@H](CC(C)C)NC(=O)[C@@H](Cc2ccccc2)NC(=O)[C@H](CC(C)C)N(C)C(=O)[C@H]2CCCN2C(=O)[C@@H](CC(C)C)NC(=O)[C@H](CC(C)C)NC(=O)[C@H]2CCCN2C1=O [Design D11.2] (cyclo(L[Sar][dI]P[dI][dP]L[dL][dP][NMeL][dF]))
Marked response: 11.1

* * *

- procedure_details: Pharmacokinetics and oral bioavailability of D8.3.p1 and D10.1 in Balb/C female mice (PO, SQ, IV)
- Assay type: in vivo
- condition_context: female, Balb/C, mouse, plasma; D10.1 PO 12.2 mg/kg, mean n=3; read-out: Apparent clearance Cl/F
outcome_measure: CL/F
Numeric answer plus unit only.

Exam item: Answer with the recorded CL/F of CC[C@H](C)[C@@H]1NC(=O)[C@@H](CC(C)C)NC(=O)[C@H](CC(C)C)N(C)C(=O)[C@H](Cc2ccccc2)NC(=O)CN(C)C(=O)[C@@H]2CCCN2C(=O)[C@H](C(C)C)NC(=O)[C@H](Cc2ccccc2)N(C)C(=O)[C@H]2CCCN2C(=O)[C@H](CC(C)C)NC1=O [Design D10.1] only.
Marked response: 0.785 mL/min

* * *

- condition_context: PAMPA
Where a SMILES comes first, the peptide text is derived from it. [ ]: non-standard residue; d: D form. NMeL = CN[C@@H](CC(C)C)C(=O)O; dNMeL = CN[C@H](CC(C)C)C(=O)O; NMeV = CN[C@H](C(=O)O)C(C)C
outcome_measure: PAMPA_R1
// return a plain number; no unit text

Exam item: Item CC[C@H](C)[C@@H]1NC(=O)[C@@H](C(C)C)NC(=O)[C@@H]2CCCN2C(=O)[C@@H](CC(C)C)N(C)C(=O)[C@@H](C(C)C)NC(=O)[C@H](CC(C)C)N(C)C(=O)[C@H]2CCCN2C(=O)[C@@H](C)NC(=O)[C@H](Cc2ccccc2)N(C)C(=O)[C@H]2CCCN2C1=O (single isomer, unassigned) [Design D10.3.p1] : provide PAMPA_R1
Marked response: 3.04E-06

Exam item: Answer with reported PAMPA_R1 of CC(C)C[C@@H]1C(=O)N2CCC[C@@H]2C(=O)N(C)[C@@H](C(C)C)C(=O)N[C@@H](C(C)C)C(=O)N2CCC[C@H]2C(=O)N2CCC[C@@H]2C(=O)N[C@@H](C)C(=O)N[C@H](C(C)C)C(=O)N(C)[C@@H](CC(C)C)C(=O)N[C@@H](C)C(=O)N1C [Design D10.6] (cyclo(A[dNMeL][dP][NMeV]VP[dP]A[dV][NMeL]))
Marked response: 1.62E-06

* * *

Below, each of the compounds is paired with its reported PAMPA_R1 value.
- condition_context: PAMPA
Where a SMILES comes first, the peptide text is derived from it. [ ]: non-standard residue; d: D form. dNMeF = CN[C@H](Cc1ccccc1)C(=O)O; NMeL = CN[C@@H](CC(C)C)C(=O)O; dNMeL = CN[C@H](CC(C)C)C(=O)O; NMeA = CN[C@@H](C)C(=O)O; dNMeA = CN[C@H](C)C(=O)O
I only need the number, thanks.

Below: 4 compounds and their reported PAMPA_R1.
Exam item: Please supply the value of reported PAMPA_R1 for the item CC(C)C[C@@H]1C(=O)N[C@H](CC(C)C)C(=O)N2CCC[C@@H]2C(=O)N2CCC[C@@H]2C(=O)N(C)[C@@H](CC(C)C)C(=O)N[C@H](CC(C)C)C(=O)N2CCC[C@@H]2C(=O)N2CCC[C@H]2C(=O)N1C [Design D8.32, DPRO DPRO *LEU DLEU DPRO PRO *DLEU DLEU] (cyclo([dNMeL][dL][dP][dP][NMeL][dL][dP]P))
Marked response: 5.82E-06

Exam item: Specify reported PAMPA_R1 for the compound shown: CC[C@@H](C)[C@H]1NC(=O)[C@H](CC(C)C)N(C)C(=O)[C@H]2CCCN2C(=O)[C@@H](Cc2ccccc2)N(C)C(=O)[C@@H](Cc2ccccc2)N(C)C(=O)[C@H](CC(C)C)N(C)C(=O)[C@@H](C(C)C)NC(=O)[C@@H]2CCCN2C(=O)[C@H](C)NC1=O [Design D9.9] (cyclo(AP[dV][NMeL][dNMeF][dNMeF][dP][NMeL][dI]))
Marked response: 7.88E-07

Exam item: Recall and state the measured PAMPA_R1 for CC(C)C[C@@H]1NC(=O)[C@@H](CC(C)C)NC(=O)[C@@H]2CCCN2C(=O)[C@@H](CC(C)C)NC(=O)[C@H](C)N(C)C(=O)[C@H](C)NC(=O)[C@H](CC(C)C)N(C)C(=O)[C@@H]2CCCN2C(=O)[C@H](CC(C)C)NC(=O)[C@H](CC(C)C)N(C)C1=O [Design D10.16] (cyclo(A[NMeA][dL]P[dL]L[NMeL]LP[NMeL])) .
Marked response: 2.30E-06

Exam item: Kindly indicate its recorded PAMPA_R1. Item: CC[C@H](C)[C@@H]1NC(=O)[C@@H](Cc2ccccc2)NC(=O)[C@@H](C)NC(=O)[C@@H](C(C)C)NC(=O)[C@H](CCSC)NC(=O)[C@@H]2CCCN2C(=O)[C@H]2CCCN2C(=O)[C@@H]2CCCN2C(=O)[C@@H](C)N(C)C(=O)[C@@H](CC(C)C)N(C)C1=O [Design D10.45] (cyclo(M[dV][dA][dF]I[dNMeL][dNMeA]P[dP]P))
Marked response: 5.38E-07

Now for another entry.
Exam item: Indicate its recorded PAMPA_R1; the compound in question is CC[C@@H](C)[C@H]1NC(=O)[C@@H]2CCCN2C(=O)[C@@H]([C@H](C)CC)NC(=O)[C@@H](C)N(C)C(=O)[C@H](CC(C)C)NC(=O)[C@@H](Cc2ccccc2)NC(=O)[C@H](CC(C)C)N(C)C(=O)[C@H]2CCCN2C(=O)[C@@H](CC(C)C)NC(=O)[C@H](CC(C)C)NC(=O)[C@H]2CCCN2C1=O [Design D11.1] (cyclo(L[dL][dP][NMeL][dF]L[dNMeA][dI]P[dI][dP]))
Marked response: 3.55E-06
